B1: CPEB3 Ribozyme (parent)
chain: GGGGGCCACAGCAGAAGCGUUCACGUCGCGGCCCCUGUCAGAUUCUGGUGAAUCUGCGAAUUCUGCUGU

variants of: B1; test: self-cleavage, relative activity (ratio to wild type); higher = more cleavage; co-transcriptional
Measured Quantity: self-cleavage

Entry Sequence	Measured Quantity	Reported Measurement
GGGGGACACAGCAGAAGCGUUCACGUCGCGGCCCCUGUAAGAUUCUGGUGAAUCUGCGAAUUCUGCUGU [C6A C39A]	self-cleavage	0.231
GGGGGCCACAGCAGAAGCGUUCACGUCGCGGCCCCUGUCAGAUUCUGGUGAGUCUGCGAAUUCUGCUAU [A52G G68A]	self-cleavage	1.01
GGGGGCCACAGCAGAAGCGUUCACGUCGCGGCCCCUGUCAGCUUCUGGUGAAUCUGCGAAUACUGCUGU [A42C U62A]	self-cleavage	0.673
GGGGGCCACAGCAGAAGCGUUCACGUCGCGGCCCCUGCCAGAUUCUGGUGACUCUGCGAAUUCUGCUGU [U38C A52C]	self-cleavage	0.921
GGGGGACACAGCAGAAGCGUUCACGUCGCGGCCCCUGUCAGAGUCUGGUGAAUCUGCGAAUUCUGCUGU [C6A U43G]	self-cleavage	0.367
GGGGGCCACAGCCGAAGCGUUCAAGUCGCGGCCCCUGUCAGAUUCUGGUGAAUCUGCGAAUUCUGCUGU [A13C C24A]	self-cleavage	0.402
GGGGGCCACAGCAGAAGCGUUCACGUCGCGGCCCCUGUCAGAGUCUGGUGAAUCUACGAAUUCUGCUGU [U43G G56A]	self-cleavage	0.481
GGGGGCCACAGCAGAAGCGUUCACGUCGCGGCCCCUGUCAGAUUCUGGUGAAUCCGCGAAUUCUCCUGU [U55C G65C]	self-cleavage	0.416
GGGGGCCACAGCAGAAGCGUUCACGUCGCAGCCCCUGUCAGAUUCUGGUGAAUCUGCGACUUCUGCUGU [G30A A60C]	self-cleavage	0.261
GGGGGCCACAGCAGAAGCGUUCACGUCGCGGCCCCUGUCAGAUUAUGGUGAAUCUGCGAAUUCUGGUGU [C45A C66G]	self-cleavage	0.788
GGGGGCCACAGCAGAAGCGUUCACGUCGCGGCCCCUGUCAGGUUAUGGUGAAUCUGCGAAUUCUGCUGU [A42G C45A]	self-cleavage	1.01
GGGGGCCACAGCAGAAGCGUUCACGUCGCGGCCUCUUUCAGAUUCUGGUGAAUCUGCGAAUUCUGCUGU [C34U G37U]	self-cleavage	0.247
GGGGGCCACAGCAGAAGCCUUCACGUCGCGGCCCCUGUCAGAUUCUGGUGAAACUGCGAAUUCUGCUGU [G19C U53A]	self-cleavage	0.224
GGGGGCCACAGCAGAAGCGUUUACGUCGCGGCCCCUGUCAGAUUCUGGUGAAUCUGCAAAUUCUGCUGU [C22U G58A]	self-cleavage	0.255
GGGGGCCACAGAAGAAGCGUUCACGUCGCGGCCCCUGUCAGAUUCUGGUGAAUCUGCGAAGUCUGCUGU [C12A U61G]	self-cleavage	0.316
GGGGGCCACAGCAGAAGCGUUCACGUCGCGGCCCCUGUCAGAUCCUAGUGAAUCUGCGAAUUCUGCUGU [U44C G47A]	self-cleavage	0.979
GGGGGCCACAGCAGAUGCGUUCACGUCGCGGCCCCUGUCAGAUUCUGGUGUAUCUGCGAAUUCUGCUGU [A16U A51U]	self-cleavage	0.853
GGGGGCCACAGCAGAAGCGUACACGUCGCGGCCUCUGUCAGAUUCUGGUGAAUCUGCGAAUUCUGCUGU [U21A C34U]	self-cleavage	0.995
GGGGGCCACAGCAGAAGCGUUCACGUCGCGGCCCCUGUGUGAUUCUGGUGAAUCUGCGAAUUCUGCUGU [C39G A40U]	self-cleavage	0.644
AGGGGCCACAGCAGAAGCGUUCACGUCGCGGCCCCAGUCAGAUUCUGGUGAAUCUGCGAAUUCUGCUGU [G1A U36A]	self-cleavage	0.0492
GGGGGCCACAGCAUAAGCGUUCACGUCGCGGCCGCUGUCAGAUUCUGGUGAAUCUGCGAAUUCUGCUGU [G14U C34G]	self-cleavage	0.347
GGGGGCCACAGCAGAAGCGUUCGCGUCGCGGCCCCUGUCAGAUUCUGGUGAAUAUGCGAAUUCUGCUGU [A23G C54A]	self-cleavage	0.712
GGGGGCCACAGCAGAAGCGUUCACGUCGCGGCCCCUGUCAGAUUCUGGGGAAUCUGCGCAUUCUGCUGU [U49G A59C]	self-cleavage	0.68
GGGGGCCACAGCAGAAGCGUUCACGUCGCGGCCCCUGUCAGACUUUGGUGAAUCUGCGAAUUCUGCUGU [U43C C45U]	self-cleavage	1.01
GGGGGACACAGCAGAAGCGUUCACGUCGCGGACCCUGUCAGAUUCUGGUGAAUCUGCGAAUUCUGCUGU [C6A C32A]	self-cleavage	0.349
GGGGGCCACAGCAGAAGCGUUCACGUCGCGGCCCCUGCCAGAUUCUGGUGAAUCUACGAAUUCUGCUGU [U38C G56A]	self-cleavage	0.879
GGGGGCCACAGAAGAAGCGUCCACGUCGCGGCCCCUGUCAGAUUCUGGUGAAUCUGCGAAUUCUGCUGU [C12A U21C]	self-cleavage	0.464
GGGGGCCACAGAAGAAGCGUUGACGUCGCGGCCCCUGUCAGAUUCUGGUGAAUCUGCGAAUUCUGCUGU [C12A C22G]	self-cleavage	0.129
GGGGGCCACUGCAGAAGCGUUCACGUCGCGGCCCCAGUCAGAUUCUGGUGAAUCUGCGAAUUCUGCUGU [A10U U36A]	self-cleavage	0.291
GGGGCCCACAGCAGAAGCGUUGACGUCGCGGCCCCUGUCAGAUUCUGGUGAAUCUGCGAAUUCUGCUGU [G5C C22G]	self-cleavage	0.0735
GGGGGCCACAGCAGAAGCGUUCACGACGCGGCCCCUGUCAGAUUCUGGUGAAUCUGCGAAUUCUGCUAU [U26A G68A]	self-cleavage	0.941
GGGGGUCACAGCAGAAGCGUUCACGCCGCGGCCCCUGUCAGAUUCUGGUGAAUCUGCGAAUUCUGCUGU [C6U U26C]	self-cleavage	0.893
GGGGGCCACAGCAGAAGCGUUCACGUCGCGGCCCCUGUCAGAUUCUGGUCAAUCUGCGAAUUCUGCUGG [G50C U69G]	self-cleavage	1.06
GGUGGCCACAGCAGAAGCGUUCACGUCGCGGCCCCUGUCAGAUUCUGGUGAAUCUGCGAAUUCUGCAGU [G3U U67A]	self-cleavage	0.406
GGGGGCCACAGCAUAAGCGUUCACGUCGCGGCCCCUGUCAGAUUCUGGUGAAUCUGCGAAUUCUGCGGU [G14U U67G]	self-cleavage	0.77
GGGGGCCACAGCAGAAGCUUUCACGUCGCGGCCCCUGUCAGAUUCUGGUGAAUCUGCGUAUUCUGCUGU [G19U A59U]	self-cleavage	0.158
GGGGGCCACAGCAGAAGCGUUCACGUCGCGGCCCCUGUCAGAUUCUGGUAAAUCUGCGAAUUCUGCUUU [G50A G68U]	self-cleavage	1.02
GGGGGCCACAGCAGACGCGUUCACGUCGCGGCCCCUGGCAGAUUCUGGUGAAUCUGCGAAUUCUGCUGU [A16C U38G]	self-cleavage	0.15
GGGGGCCACAGCAGAAGCGUUUAGGUCGCGGCCCCUGUCAGAUUCUGGUGAAUCUGCGAAUUCUGCUGU [C22U C24G]	self-cleavage	0.169
